experiment: yeast display, Sf9 membrane polyspecificity reagent, FACS + sequencing; frameworks hold sequencing errors
quantityName: polyreactivity (PSR sort gate)

Please review the entries below; each comes with its answer.
- QVQLVESGRGLVQAGGSLRLSCAASGRISVFNAMGWYRQAPGKERELVAAISWSGGSTYYADSVKGRFTISRDNAKNTVYLQMNSLKPEDTAVYYCAARGHYQYYWGQGTQVTVSS: low polyreactivity
- QVQLVESGGGLVQAGGSLRLSCAASGITIDYYAMGWYRQAPGKERELVAAISSVGNTNYADSVKGRFTISRDNAKNTVYLQMNSLKPEDTAVYYCATYAYYLYHVGTAYDYWGQGTQVTVSS: high polyreactivity
- QVQLVESGGGLVQAGGSLRLSCAASGFIFGRYAMGWYRQAPGKETELVAAISVSGGSTYYADSVKGRFTISRDNAKNTVYLQMNSLKPEDTAVYYCNVARWVSVSRSYGGNYWGQGTQVTVSS: high polyreactivity
- QVQLVESGGGLVQAGGSLRLSCAASGRTFYKNTMGWYRQAPGKERELVAAIRWRGSSTYYADSVKGRFTISRDNAKNSVYLKMNSLKPEDTAVYYCAAPSSVRGKVISADYAYWGQGTQVTVSS: high polyreactivity
- QVQLVESGGGLVQAGVSLRLSCAASGSTFRKYTMGWSRQAPGKERELVAAITYRGDRTYYADSVKGRFTISRDNAKNTVFIQMNSLIPEDTAVYYCASTSYYGAVWYIFYYWGQGTQVTVSS: high polyreactivity
- QVQLVESGGGLVQAGGSLRLSCAASGGTFSKYAMGWYRQAPGKERELVAAITYSSGSKYYADSVKGRFTISRDNAKNTVYLQMNSLKPEDTADYYCAARSGLYWWRFDYWGQGTQVTVSS: high polyreactivity

Q: Query polyreactivity (PSR sort gate) for QDQLVESGGGLVQAGGSLRLSCAASGFIFGYYAMGWYRQAPGKERDLFAAINKNGGSTYYADSVKGRFTISRDNAKNTFYLQRNSLIPEDTAVYYCASRARGYAWTYDYWGQGTQVTVSS
Result: high polyreactivity

Q: Query polyreactivity (PSR sort gate) for QVQLVESGGGLVQAGGSLRLSCAASGRIFGTNAMGWYRQAPGKERELVADITSGGSTNYADSVKGRFTISRDNAKNTVYLQMNSLKPEDTAVYDCAADVIGDLRWYRDEYWGQGTQVTVSS
Result: low polyreactivity

Q: Query polyreactivity (PSR sort gate) for QVQRVESGGGLVQAGGSLRLSCAASGFIFDGYAMGWYRQAPGKERELVAAIDSGGDRTYYADSVKGRFTISRDNAKNTVYLLMNSLKPEDTAVYYCAADSSDPTGYEYGGQGTQVTVSS
Result: low polyreactivity

Q: Query polyreactivity (PSR sort gate) for QVQLVESGGGLVQAGGSLRLSCAASGRIFRWYAMGWYRQAPGKERELVAGINYGGGRTYYADSVKGRFTISRDNAKNTVYLQMNSLNPEDTAVYYCAAGISGHYYWGQGTQVTVSS
Result: high polyreactivity

Q: Query polyreactivity (PSR sort gate) for QLQLVESGGGLVQSGGSLRLSCAASGRTFDWYTKGWYRQAPGKERELVAAITSGGTTNYADSVKGRFTISRDNAKNTVYLQMNSLKPEDTAVYYCAKDEGEGYDYWGQGTQVTVSS
Result: low polyreactivity

# credit: the nanobody polyreactivity screen of Harvey et al. (2022)
